# System: SF-295
# assay.summary: NCI tumour cell line growth inhibition, 48 h
Structures can show the parent of a compound that is named as a salt. Activity calls are given as the source filed them. No stated cut-off is given here; in the data, active = GI50 up to about 1.1 µM and inactive = higher.
Use one of these outcomes when replying: 1 (yes) = active, 0 (no) = inactive

Some entries whose results are on file:
compound	class
Cn1cc(C(=O)NCCC(=N)N)cc1NC(=O)C1=[N+](C)C=C(NC(=O)c2cccc(C(=O)NC3=CC(C(=O)Nc4cc(C(=O)NCCC(=N)N)cn4C)=[N+](C)C3)c2)C1	0 (no)
Cc1cc(NC(=O)NC(=O)c2ccccc2N(C)C)ccc1Oc1ncc(Br)cn1	1 (yes)
COc1ccc(CCN2CCN(CCCc3ccccc3)CC2)cc1	0 (no)
Cc1cc(C2(c3cc(C)c(O)c(C(=O)O)c3)OS(=O)(=O)c3ccccc32)cc(C(=O)O)c1O	0 (no)
Cc1ccsc1C(=S)Nc1ccc(Cl)c(/C=N/OC(C)C)c1	0 (no)

**Q:** Field: outcome | Entry: "Oc1cc(CF)nc(S)n1"
**A:** 0 (no)

**Q:** Field: outcome | Entry: CCN(CC)CCNc1ccc(C)c2sc3ccccc3c(=O)c12 [LUCANTHONE HYDROCHLORIDE]
**A:** 0 (no)

**Q:** Field: outcome | Entry: [Zn+2][N+]12CCN3CCN4CCN(CC1)[PH]432 (stereo not drawn)
**A:** 0 (no)

**Q:** Field: outcome | Entry: "CC[C@H](NC1=C(Cl)C(=O)c2c(O)ccc(O)c2C1=O)C(=O)OC"
**A:** 0 (no)

**Q:** Field: outcome | Entry: CC(=O)/C=C1/c2ccccc2N(C(C)=O)C1O (stereo not drawn)
**A:** 0 (no)

Data origin, for the record: ChEMBL document CHEMBL1201862
